Each record here notes measured melting point.

MOLECULE: CCN(CC)CCC1CCN(C(=O)N2c3ccccc3C(=O)Nc3cccnc32)CC1
REPORTED_ENDPOINT: melting point
EXPERIMENTAL_VALUE: 154 °C
--
MOLECULE: CC(=O)NC[C@H]1CN(c2ccc(N3CCC(O)CC3)cc2)C(=O)O1
REPORTED_ENDPOINT: melting point
EXPERIMENTAL_VALUE: 64 to 66 °C
--
MOLECULE: O=c1nc(Nc2ccc(Br)cc2)sc2ncccc12
REPORTED_ENDPOINT: melting point
EXPERIMENTAL_VALUE: 274 to 275 °C
--
MOLECULE: CCOC(=O)c1cnc(OCC)c2c(C)n[nH]c12
REPORTED_ENDPOINT: melting point
EXPERIMENTAL_VALUE: 200 °C
--
MOLECULE: CCOc1ccc2c(c1)n(C1CCOCC1)c(=O)n2Cc1ccc(C(=O)NC(C)(C)C)cc1OC
REPORTED_ENDPOINT: melting point
EXPERIMENTAL_VALUE: 209 °C
--
MOLECULE: COCCCNC(=O)C(C)(C(C)C)C(C)C
REPORTED_ENDPOINT: melting point
EXPERIMENTAL_VALUE: 10 °C
--
MOLECULE: COCCNC(=O)c1cccc2c1C1(COc3cc4c(cc31)OCCO4)C(=O)N2C (stereo not given)
REPORTED_ENDPOINT: melting point
EXPERIMENTAL_VALUE: 97 to 100 °C
--
MOLECULE: CC(=O)OC1CSC(Oc2cccc(-c3cnoc3C)c2)C(OC(C)=O)C1OC(C)=O (stereo not given)
REPORTED_ENDPOINT: melting point
EXPERIMENTAL_VALUE: 60 °C
--
MOLECULE: CC(C)(C)C(=O)Oc1c(N2CCCC2)c(=O)n(-c2ccccc2)c2ncccc12
REPORTED_ENDPOINT: melting point
EXPERIMENTAL_VALUE: 163 to 165 °C
--
MOLECULE: CCNc1nc(-c2ccccc2)c(-c2ccccc2)nc1Cl
REPORTED_ENDPOINT: melting point
EXPERIMENTAL_VALUE: 115 to 122 °C

Task item: Name the recorded melting point of the molecule listed here: O=C1CN(c2ccccc2)C(=O)N1C(=O)c1ccc(Cl)cc1
Reply: 182 to 184 °C

Task item: State its melting point: O=C(O)CC1c2ncccc2S(=O)(=O)N1c1ccccc1 (stereo not given)
Reply: 123 to 128 °C

Task item: Look up and report measured melting point for this entry: CC(=O)Oc1ccc(-c2ccc(C(C)=O)cc2)cc1Br
Reply: 100 °C

Values compiled from a melting point compilation (Tetko et al.; mined from patent text by program, amines drawn as free bases though some values may be those of a salt).
